Below are IC50 values for Renin (Homo sapiens, UniProt P00797) collected from several publications.

Input line: Please give the measured IC50 for this compound: CCC(C)C(NC(=O)C(NC(=O)OC(C)(C)C)C(C)(C)C)C(=O)NC(CC(C)C)C(O)CC(=O)O (stereo not drawn)
Output line: > 10 µM

Input line: Suppose we examine the compound CC(C)CNC(=O)[C@](O)(CC(C)C)C[C@H](O)[C@H](CC1CCCCC1)NC(=O)[C@H](Cc1c[nH]cn1)NC(=O)[C@H](Cc1ccccc1)NC(=O)OC(C)(C)C ; what IC50 value has been reported?
Output line: 0.03 µM

Input line: Could you tell me which IC50 is on file for COc1ccccc1COCCCOc1ccc(N2C(=O)CNC[C@H]2COCc2cccnc2)cc1 ?
Output line: > 10 µM
